- TARGET: Caspase-1 (Homo sapiens)
- ASSAY PROTOCOL: Inhibition of recombinant human caspase-1 expressed in Escherichia coli BL21 cells assessed as remaining activity at 100 uM using […] as substrate incubated for 30 mins relative to control
Assign met to entries whose Activity meets or exceeds 30%; assign not met to the rest.

[
  {
    "COMPOUND SMILES": "Cc1ccc2c(c1)[C@]1(C=C[C@H](N=C=S)C[C@H]1C(=O)OC(C)(C)C)C(=O)N2C(=O)OCc1ccccc1",
    "CLASSIFICATION": "not met"
  },
  {
    "COMPOUND SMILES": "CC(C)(C)OC(=O)[C@@H]1C[C@@H](N=C=S)C=C[C@@]12C(=O)N(C(=O)OCc1ccccc1)c1ccc(Br)cc12",
    "CLASSIFICATION": "met"
  },
  {
    "COMPOUND SMILES": "CC(C)(C)OC(=O)[C@@H]1C[C@@H](N=C=S)C=C[C@@]12C(=O)N(C(=O)OCC1c3ccccc3-c3ccccc31)c1ccccc12",
    "CLASSIFICATION": "not met"
  },
  {
    "COMPOUND SMILES": "COc1ccc2c(c1)[C@]1(C=C[C@H](N=C=S)C[C@H]1C(=O)OC(C)(C)C)C(=O)N2",
    "CLASSIFICATION": "not met"
  },
  {
    "COMPOUND SMILES": "CCC1=C[C@@]2(C(=O)N(C(=O)OCc3ccccc3)c3ccccc32)[C@H](C(=O)OC(C)(C)C)C[C@@]1(CC)N=C=S",
    "CLASSIFICATION": "met"
  },
  {
    "COMPOUND SMILES": "CC(C)(C)OC(=O)[C@@H]1C[C@@H](N=C=S)C=C[C@@]12C(=O)N(C(=O)OCc1ccccc1)c1ccc(I)cc12",
    "CLASSIFICATION": "met"
  },
  {
    "COMPOUND SMILES": "CC(C)(C)OC(=O)[C@@H]1C[C@@H](NC(=S)Nc2ccccc2)C=C[C@@]12C(=O)N(C(=O)OCc1ccccc1)c1ccccc12",
    "CLASSIFICATION": "met"
  },
  {
    "COMPOUND SMILES": "CC(C)(C)OC(=O)[C@@H]1C[C@@H](N=C=S)C=C[C@@]12C(=O)N(C(=O)OCc1ccccc1)c1cc(Br)ccc12",
    "CLASSIFICATION": "not met"
  },
  {
    "COMPOUND SMILES": "COc1ccc2c(c1)[C@]1(C=C[C@H](N=C=S)C[C@H]1C(=O)OC(C)(C)C)C(=O)N2C(=O)OCc1ccccc1",
    "CLASSIFICATION": "not met"
  },
  {
    "COMPOUND SMILES": "COC(=O)[C@@H]1C[C@@H](N=C=S)C=C[C@@]12C(=O)N(C(=O)OCc1ccccc1)c1ccccc12",
    "CLASSIFICATION": "not met"
  },
  {
    "COMPOUND SMILES": "CC(C)OC(=O)[C@@H]1C[C@@H](N=C=S)C=C[C@@]12C(=O)N(C(=O)OCc1ccccc1)c1ccccc12",
    "CLASSIFICATION": "not met"
  },
  {
    "COMPOUND SMILES": "CC(C)(C)OC(=O)[C@@H]1C[C@@H](N=C=S)C=C[C@@]12C(=O)N(C(=O)OCc1ccccc1)c1ccc(Cl)cc12",
    "CLASSIFICATION": "not met"
  },
  {
    "COMPOUND SMILES": "O=C(OCc1ccccc1)[C@@H]1C[C@@H](N=C=S)C=C[C@@]12C(=O)N(C(=O)OCc1ccccc1)c1ccccc12",
    "CLASSIFICATION": "met"
  },
  {
    "COMPOUND SMILES": "O=C(c1ccccc1)[C@@H]1C[C@@H](N=C=S)C=C[C@@]12C(=O)N(C(=O)OCc1ccccc1)c1ccccc12",
    "CLASSIFICATION": "not met"
  },
  {
    "COMPOUND SMILES": "CC1=C[C@@]2(C(=O)N(C(=O)OCc3ccccc3)c3ccccc32)[C@H](C(=O)OC(C)(C)C)C[C@H]1N=C=S",
    "CLASSIFICATION": "met"
  },
  {
    "COMPOUND SMILES": "CC(C)(C)OC(=O)[C@@H]1C[C@@H](N=C=S)C=C[C@@]12C(=O)N(C(=O)OCc1ccccc1)c1ccccc12",
    "CLASSIFICATION": "not met"
  }
]
